target: GlcNAc(b1-4)Gal(b1-4)GlcNAc; assay: glycan array binding signal (z-score within array); higher = stronger binding; conditions: glycan notation: IUPAC condensed, linker removed
The sample as a whole holds a higher share of the strongest signals than the screen did.
Hi there, I'd appreciate the recorded glycan array binding signal (z-score) for every entry that follows.
Give the value as a plain number.

Lookup: Return the recorded glycan array binding signal (z-score) value; entry: LecRKVI.2 (protein) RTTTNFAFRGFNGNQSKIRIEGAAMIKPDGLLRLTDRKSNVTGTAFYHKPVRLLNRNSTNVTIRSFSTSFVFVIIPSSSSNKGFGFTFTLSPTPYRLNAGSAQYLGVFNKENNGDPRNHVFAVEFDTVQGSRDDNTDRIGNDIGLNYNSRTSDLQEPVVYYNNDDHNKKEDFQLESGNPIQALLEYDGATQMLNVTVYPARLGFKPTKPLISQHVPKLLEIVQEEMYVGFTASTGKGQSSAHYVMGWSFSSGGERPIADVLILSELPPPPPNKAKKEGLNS
Found: -0.256

Lookup: Recall and state the measured glycan array binding signal (z-score) for Tachylectin-2 (Tachypleus tridentatus), TAL2_TACTR (protein) VGGESMLRGVYQDKFYQGTYPQNKNDNWLARATLIGKGGWSNFKFLFLSPGGELYGVLNDKIYKGTPPTHDNDNWMGRAKKIGNGGWNQFQFLFFDPNGYLYAVSKDKLYKASPPQSDTDNWIARATEIGSGGWSGFKFLFFHPNGYLYAVHGQQFYKALPPVSNQDNWLARATKIGQGGWDTFKFLFFSSVGTLFGVQGGKFYEDYPPSYAHDNWLARAKLIGNGGWDDFRFLFF .
Found: 1.17

Lookup: Check the records and state glycan array binding signal (z-score) for Langerin K299A/K313A (Homo sapiens), Q9UJ71 (protein) STLNAQIPELKSDLEKASALNTKIRALQGSLENMSKLLKRQNDILQVVSQGWKYFKGNFYYFSLIPKTWYSAEQFCVSRNSHLTSVTSESEQEFLYKTAGGLIYWIGLTKAGMEGDWSWVDDTPFNKVQSARFWIPGEPNNAGNNEHCGNIAAPSLQAWNDAPCDATFLFICKRPYVPSEP
Found: -0.886

Lookup: Identify measured glycan array binding signal (z-score) corresponding to Gal 8 (Homo sapiens) (protein) MLSLNNLQNIIYNPVIPYVGTIPDQLDPGTLIVICGHVPSDADRFQVDLQNGSSVKPRADVAFHFNPRFKRAGCIVCNTLINEKWGREEITYDTPFKREKSFEIVIMVLKDKFQVAVNGKHTLLYGHRIGPEKIDTLGIYGKVNIHSIGFSFSSDLQSTQASSLELTEISRENVPKSGTPQLQTVSPSWDLQGHGSETFCSVLWTRVFLEIAFCRPIGLTVASFQSLPFAARLNTPMGPGRTVVVKGEVNANAKSFNVDLLAGKSKDIALHLNPRLNIKAFVRNSFLQESWGEEERNITSFPFSPGMYFEMIIYCDVREFKVAVNGVHSLEYKHRFKELSSIDTLEINGDIHLLEVRSW
Found: -0.2
